- Test system: DU-145 prostate
- PROTOCOL TEXT: NCI-60 one-dose screen, 48 h (100 = growth as untreated, 0 = no growth, -100 = all killed)
- EXPERIMENTAL SETUP: 10 µM unless noted
Compounds without any hit were thinned out: in the full panel of roughly 83,000, 20% have a hit.

{"COMPOUND": "O=S(=O)(O)c1ccc(N=NSc2ccc3ccccc3c2)cc1", "growth, %": 103}
{"COMPOUND": "Nc1c(C(=O)c2ccccc2)sc2nc(-c3cc4ccccc4o3)cc(-c3ccc(Cl)cc3)c12", "growth, %": 90.8}
{"COMPOUND": "CCOC(=O)C1=C(C)n2nc(CC#N)c(C#N)c2NC1c1ccc(Cl)cc1 (stereo unspecified)", "growth, %": 97.2}
{"COMPOUND": "CSc1nc(-c2ccco2)c2c(N)[nH]nc2n1", "growth, %": 102}
{"COMPOUND": "NC[C@@H]1CCN(c2cc3c(cc2F)c(=O)n(N)c(=O)n3Cc2ccc(-c3ccccc3)cc2)C1", "growth, %": 102}
{"COMPOUND": "Cc1nnc(/N=C2\\NC(=O)/C(=C/c3ccsc3)S2)s1", "growth, %": 98.7}

----------
- System: HCC-2998 colon
- PROTOCOL TEXT: NCI-60 one-dose screen, 48 h (100 = growth as untreated, 0 = no growth, -100 = all killed)
- EXPERIMENTAL SETUP: 10 µM unless noted
The panel holds about 83,000 compounds, 20% with a hit somewhere; the sample as a whole holds those more often.
Quick rule for you: growth under 80% gets Condition met, anything else gets Condition not met.

{"MOLECULE": "COC(=O)c1ccc(NC(=O)CSc2nc(-c3ccc(F)cc3)nc3ccccc23)cc1", "CLASS LABEL": "Condition not met"}
{"MOLECULE": "COc1ccc2oc(=O)cc(-c3c(C#N)c(N)n4nc(N)c(C#N)c4c3C#N)c2c1", "CLASS LABEL": "Condition not met"}
{"MOLECULE": "COc1ccc(NC(=O)c2sc3nc(C)c(C(C)=O)cc3c2N)cc1", "CLASS LABEL": "Condition not met"}
{"MOLECULE": "CSc1nc(-c2ccc(F)cc2)c(C#N)c(N2CCOCC2)n1", "CLASS LABEL": "Condition not met"}
{"MOLECULE": "C/C(=N\\NC(=O)c1ccncc1)c1ccc(N)cc1", "CLASS LABEL": "Condition not met"}
{"MOLECULE": "CCCCc1n(Cc2ccc3ccccc3n2)cc[n+]1Cc1ccc2ccccc2c1", "CLASS LABEL": "Condition met"}
{"MOLECULE": "CC(=O)OCC1SC(OC(C)=O)C(NC(=O)/C=C/CCl)C(OC(C)=O)C1OC(C)=O (configuration not stated)", "CLASS LABEL": "Condition not met"}
{"MOLECULE": "Cc1nc2sc(C(=O)Nc3cccc4ccccc34)c(N)c2cc1C(C)O (configuration not stated)", "CLASS LABEL": "Condition met"}
{"MOLECULE": "COc1ccc(C(=O)c2cc(OC)c(OC)c(OC)c2)cc1OC(=O)CCl", "CLASS LABEL": "Condition met"}
{"MOLECULE": "Cc1nnc(/N=C2\\NC(=O)/C(=C/c3ccc(N(C)C)cc3)S2)s1", "CLASS LABEL": "Condition not met"}
{"MOLECULE": "O=c1[nH]c2ccccc2cc1-c1nc2ccncc2[nH]1", "CLASS LABEL": "Condition not met"}
{"MOLECULE": "COc1ccc(-c2[nH]c3ccccc3c2C=C(C#N)C#N)cc1", "CLASS LABEL": "Condition met"}
{"MOLECULE": "C=C1C(=O)O[C@H]2[C@H]1CC/C(C=Nc1c(N)cc(C(F)(F)F)cc1Br)=C\\CC[C@@]1(C)O[C@@H]21", "CLASS LABEL": "Condition met"}
{"MOLECULE": "c1ccc2c3c([nH]c2c1)C(c1ccc(C2NCCc4c2[nH]c2ccccc42)cc1)NCC3 (configuration not stated)", "CLASS LABEL": "Condition met"}
{"MOLECULE": "CCCCC(=O)Nc1c(C(=O)Nc2ccccc2)sc2nc3c(cc12)C(OC(=O)CCCC)CCC3 (configuration not stated)", "CLASS LABEL": "Condition not met"}
{"MOLECULE": "CN(C)C(CNc1oc(-c2cccc3ccccc23)nc1C#N)c1ccco1 (configuration not stated)", "CLASS LABEL": "Condition not met"}
{"MOLECULE": "CC(=O)c1ccc(NC(=O)CSc2nnc(-c3cc(-c4ccc(Cl)cc4)nc4ccccc34)o2)cc1", "CLASS LABEL": "Condition not met"}
{"MOLECULE": "CCOC(=O)NCCc1nc2c([nH]1)c(=O)n(C)c(=O)n2C", "CLASS LABEL": "Condition not met"}
{"MOLECULE": "COC(=O)/C=C1\\SC(=Nc2ccc(C(F)(F)F)cc2)N(CCc2c[nH]c3ccccc23)C1=O", "CLASS LABEL": "Condition met"}
{"MOLECULE": "CCOC(=O)c1c(C)nc2c(c1N)/C(=C/c1ccccn1)C(=O)N2Cc1ccccc1", "CLASS LABEL": "Condition met"}
{"MOLECULE": "O=Cc1[nH]c(Sc2ccccc2)c2ccccc12", "CLASS LABEL": "Condition not met"}
{"MOLECULE": "O=C(Nc1cc(Br)ccn1)c1cc2cc(Nc3nc(-c4ccccc4)nc4ccccc34)ccc2oc1=O", "CLASS LABEL": "Condition not met"}
{"MOLECULE": "CC(/C=C/c1ccccc1)=N/NC(=O)c1ccncc1", "CLASS LABEL": "Condition not met"}

----------
- System: RXF 393 renal
- PROTOCOL TEXT: NCI-60 one-dose screen, 48 h
- EXPERIMENTAL SETUP: 10 µM unless noted
Compounds without any hit were thinned out: in the full panel of roughly 83,000, 20% have a hit. The source made the active and inactive calls. Rule for the calls: active = growth percent below 10; inactive = the rest.
Classes used: true = active, false = inactive

{"CHEMICAL STRING": "N#Cc1c(-c2ccc(Cl)cc2)cc(-c2cc3ccccc3o2)nc1SCC(=O)c1ccc(Cl)cc1", "TARGET OR SYSTEM": "RXF 393 renal", "CLASS LABEL": "false"}
{"CHEMICAL STRING": "Cc1nn(-c2ccc(-c3ccc(OC(F)(F)F)cc3)cc2)c2nc(-c3ccccc3)nc(N)c12", "TARGET OR SYSTEM": "RXF 393 renal", "CLASS LABEL": "false"}
{"CHEMICAL STRING": "C=C(C)[C@@H]1CC[C@]2(C(=O)OCCCC[P+](c3ccccc3)(c3ccccc3)c3ccccc3)CC[C@]3(C)[C@H](CC[C@@H]4[C@@]5(C)CC[C@H](OC(=O)C(Cl)Cl)C(C)(C)[C@@H]5CC[C@]43C)[C@@H]12", "TARGET OR SYSTEM": "RXF 393 renal", "CLASS LABEL": "true"}
{"CHEMICAL STRING": "C#C[C@@]1(O)[C@@H](CO)O[C@@H](n2cc(-c3ccco3)c3c(N)ncnc32)[C@@H]1O", "TARGET OR SYSTEM": "RXF 393 renal", "CLASS LABEL": "false"}
{"CHEMICAL STRING": "C=C(C)[C@@H]1CC[C@]2(C(=O)O)CC[C@]3(C)[C@H](CC[C@@H]4[C@@]5(C)C[C@@H](CC#Cc6ccccc6)C(=O)C(C)(C)[C@@H]5CC[C@]43C)[C@@H]12", "TARGET OR SYSTEM": "RXF 393 renal", "CLASS LABEL": "false"}
{"CHEMICAL STRING": "COc1ccc(/C=C/C(=O)C(CC2CCC2)C(=O)/C=C/c2ccc(OC)c(OC)c2)cc1OC", "TARGET OR SYSTEM": "RXF 393 renal", "CLASS LABEL": "true"}
{"CHEMICAL STRING": "O=C(C[n+]1cccc2cc(Cl)ccc21)c1ccc2c(c1)CCCC2", "TARGET OR SYSTEM": "RXF 393 renal", "CLASS LABEL": "false"}

----------
- Test system: UACC-257 melanoma
- PROTOCOL TEXT: NCI-60 one-dose screen, 48 h (100 = growth as untreated, 0 = no growth, -100 = all killed)
- EXPERIMENTAL SETUP: 10 µM unless noted
The panel holds about 83,000 compounds, 20% with a hit somewhere; the sample as a whole holds those more often.
Mark F for growth values under 60%, and T for everything at or above.

{"COMPOUND": "COC(=O)c1ccc(NC(=O)CSc2nc(-c3ccc(F)cc3)nc3ccccc23)cc1", "CLASS LABEL": "T"}
{"COMPOUND": "O=C1C(=O)c2c(nc3ccc(Br)cn23)-c2ccccc21", "CLASS LABEL": "F"}
{"COMPOUND": "Cc1nc2sc(C(=O)Nc3ccccc3)c(N)c2cc1C(C)O (stereo not given)", "CLASS LABEL": "T"}
{"COMPOUND": "Nc1c(C(=O)Nc2ccccn2)sc2nc3c(cc12)C(=O)CCC3", "CLASS LABEL": "T"}

Origin of values: PubChem BioAssay (NCI)
